molecular target: Fuc(a1-3)GlcNAc; assay: glycan array binding signal (z-score within array); higher = stronger binding; conditions: glycan notation: IUPAC condensed, linker removed
The sample as a whole holds a higher share of the strongest signals than the screen did.
Quick reference for glycan array binding signal (z-score) among some binders
Answer with a bare number; do not write a unit.

[[record]]
binder = "OVGAL11 (Ovis aries), AAF64320 (protein) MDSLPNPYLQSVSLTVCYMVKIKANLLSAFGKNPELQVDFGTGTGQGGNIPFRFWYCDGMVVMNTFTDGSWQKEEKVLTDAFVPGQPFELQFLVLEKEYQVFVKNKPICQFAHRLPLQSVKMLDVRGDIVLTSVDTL"
value_type = "glycan array binding signal (z-score)"
result_number = 4.51

[[record]]
binder = "CFEM-SCL (Saccharomyces cerevisiae), O13547 (protein) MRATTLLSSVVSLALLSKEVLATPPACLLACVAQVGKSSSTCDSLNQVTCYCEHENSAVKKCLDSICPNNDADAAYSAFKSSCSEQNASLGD"
value_type = "glycan array binding signal (z-score)"
result_number = -0.151

[[record]]
binder = "Clec49 (Caenorhabditis elegans) (protein) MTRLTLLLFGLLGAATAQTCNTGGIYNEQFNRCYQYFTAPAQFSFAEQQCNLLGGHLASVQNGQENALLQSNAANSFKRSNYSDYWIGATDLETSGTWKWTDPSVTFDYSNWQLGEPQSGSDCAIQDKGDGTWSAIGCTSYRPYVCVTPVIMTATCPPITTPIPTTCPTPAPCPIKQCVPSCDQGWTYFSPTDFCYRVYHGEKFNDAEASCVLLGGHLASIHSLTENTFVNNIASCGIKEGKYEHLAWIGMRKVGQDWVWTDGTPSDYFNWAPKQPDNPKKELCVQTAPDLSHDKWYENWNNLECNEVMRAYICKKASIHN"
value_type = "glycan array binding signal (z-score)"
result_number = -0.399

[[record]]
binder = "HMGB1 (Rattus norvegicus), P63159 (protein) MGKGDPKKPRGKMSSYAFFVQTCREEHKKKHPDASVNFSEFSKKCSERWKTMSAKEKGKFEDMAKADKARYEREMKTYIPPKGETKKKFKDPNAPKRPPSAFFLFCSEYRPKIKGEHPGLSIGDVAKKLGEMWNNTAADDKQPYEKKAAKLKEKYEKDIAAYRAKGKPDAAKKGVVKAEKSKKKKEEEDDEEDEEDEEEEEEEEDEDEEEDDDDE"
value_type = "glycan array binding signal (z-score)"
result_number = 9.99

[[record]]
binder = "BDCA2 ex-domain (Homo sapiens) (protein) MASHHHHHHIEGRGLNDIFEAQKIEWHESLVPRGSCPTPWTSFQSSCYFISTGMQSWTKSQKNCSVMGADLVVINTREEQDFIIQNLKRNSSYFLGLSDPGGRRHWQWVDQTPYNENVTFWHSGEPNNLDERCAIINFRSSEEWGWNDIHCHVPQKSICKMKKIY"
value_type = "glycan array binding signal (z-score)"
result_number = -0.3


For the next question, use this binder.
Ask: Fill in glycan array binding signal (z-score) for record AMA (Arum maculatun) (protein) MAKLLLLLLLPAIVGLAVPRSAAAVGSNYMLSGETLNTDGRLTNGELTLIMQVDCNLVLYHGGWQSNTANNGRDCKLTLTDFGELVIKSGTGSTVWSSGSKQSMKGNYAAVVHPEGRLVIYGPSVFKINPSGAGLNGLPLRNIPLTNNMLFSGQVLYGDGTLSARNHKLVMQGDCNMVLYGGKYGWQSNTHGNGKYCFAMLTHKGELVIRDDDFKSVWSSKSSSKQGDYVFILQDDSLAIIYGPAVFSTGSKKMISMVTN
Result: -0.221
